- Test Description: Solubility screening of Compound 1 in various solvents/solvent systems
- Format: physicochemical
- Assay Context: isopropyl myristate (IPM), oil or lipid, Isopropyl myristate (IPM); read-out: Determined Solubility
Endpoint Label: solubility

# Structure Smiles String, Endpoint Result
records = [
    ("CCCOc1ccc(S(=O)(=O)N2CCC(CCO[N+](=O)[O-])CC2)cc1-c1nn2c(CCC)c(/C=N/O)c(C)c2c(=O)[nH]1", "93 µg/mL"),
]

###

- Test Description: Plasma protein binding
- Assay type: in vitro ADME
- Assay Context: mouse, mice, read-out: unbound fraction (fu), plasma protein binding
Endpoint Label: fraction unbound

# Compound, Endpoint Label, Endpoint Result
records = [
    ("CCCOc1ccc(S(=O)(=O)N2CCC(CCO[N+](=O)[O-])CC2)cc1-c1nn2c(CCC)c(/C=N/O)c(C)c2c(=O)[nH]1 [Compound 1]", "fraction unbound", 0.0008),
]

###

- Test Description: Solubility screening of Compound 1 in various solvents/solvent systems
- Format: physicochemical
- Assay Context: 8% polysorbate 80 in phosphate buffer + 10% poloxamer 407, pH 6.5, aqueous with cosolvent or surfactant or cyclodextrin, 8% polysorbate 80 in PB + 10% poloxamer 407; PB = Phosphate buffer 10 mmol/L pH 6.5; read-out: Determined Solubility

# Compound, Display Unit, solubility
measured = [
    ("CCCOc1ccc(S(=O)(=O)N2CCC(CCO[N+](=O)[O-])CC2)cc1-c1nn2c(CCC)c(/C=N/O)c(C)c2c(=O)[nH]1 [Compound 1]", "µg/mL", 63),
]

###

- Test Description: Solubility screening of Compound 1 in various solvents/solvent systems
- Assay type: physicochemical
- Assay Context: 1% polysorbate 80 in phosphate buffer, pH 6.5, aqueous with cosolvent or surfactant or cyclodextrin, 1% polysorbate 80 in PB; PB = Phosphate buffer 10 mmol/L pH 6.5; read-out: Determined Solubility

# Structure Smiles String, solubility (µg/mL)
records = [
    ("CCCOc1ccc(S(=O)(=O)N2CCC(CCO[N+](=O)[O-])CC2)cc1-c1nn2c(CCC)c(/C=N/O)c(C)c2c(=O)[nH]1", 77),
]

###

- Test Description: Solubility screening of Compound 1 in various solvents/solvent systems
- Format: physicochemical
- Assay Context: PEG 400/phosphate buffer (70:30, vol:vol), pH 6.5, aqueous with cosolvent or surfactant or cyclodextrin, PEG 400/PB (70:30, vol:vol); PB = Phosphate buffer 10 mmol/L pH 6.5; read-out: Determined Solubility
Endpoint Label: solubility (µg/mL)

# Structure Smiles String, Display Unit, Endpoint Result
measured = [
    ("CCCOc1ccc(S(=O)(=O)N2CCC(CCO[N+](=O)[O-])CC2)cc1-c1nn2c(CCC)c(/C=N/O)c(C)c2c(=O)[nH]1", "µg/mL", 110),
]

###

- Test Description: Solubility of Compound 1 in solvent systems comprising PEG400
- Assay type: physicochemical
- Assay Context: organic solvent or mixture; PEG400:benzyl alcohol (99:1) vol:vol; room temperature; read-out: Determined Solubility
- Text: A solubility study of Compound 1 in solvent systems comprising PEG400 in various concentrations was effected.

# Molecule, solubility / mg/mL
records = [
    ("CCCOc1ccc(S(=O)(=O)N2CCC(CCO[N+](=O)[O-])CC2)cc1-c1nn2c(CCC)c(/C=N/O)c(C)c2c(=O)[nH]1 [Compound 1]", 12.7),
]
